Assay: qHTS for antagonists of the Thyroid Stimulation Hormone Receptor: Hit Validation in HTRF Activity in a Luteinizing Hormone Receptor Cell Line
Settings: LHR-expressing cell line, cAMP HTRF, antagonist mode; series mostly up to 58 µM
Method: The thyroid-stimulating hormone receptor (TSHR) is a member of the 7 trans-membrane-spanning receptor (7TMR) family of cell surface receptors. TSHR-mediated hyperthyroidism is important in thyroid pathology. […] Homogeneous Time Resolved Fluorescence (HTRF) cAMP Assay. […] Plates were measured using the Envision plate reader (PerkinElmer, Boston, MA) with excitation at 330 nm and emissions of 615 nm and 660 nm.
The whole screen tested about 1,300 compounds, of which about 30 (2%) were called active. Roughly 10% stayed inconclusive and do not appear here. Calls come from the whole dose curve; as a rule, active = well fitted inhibition curve with a large enough effect; inconclusive = small, poorly fitted or top-dose-only effect; inactive = flat fitted curve, though single readings scatter. The full list was thinned out, with actives kept by preference.
Please answer using one outcome listed in active, inactive

{"COMPOUND": "CN(c1ccccc1)S(=O)(=O)c1ccc(NC(=O)c2nc(S(C)(=O)=O)ncc2Cl)cc1", "CATEGORY": "active"}
{"COMPOUND": "O=C(Nc1ccc(Cl)c(Cl)c1)Nc1ccccc1O", "CATEGORY": "inactive"}

Prompt: What did this assay record as the result for COC(=O)c1ccc(NC(=O)Nc2ccc(F)c(Cl)c2)cc1 ?
Response: inactive

Prompt: What did this assay record as the result for CCOC(=O)c1ccc(NC(=O)c2nc(S(=O)(=O)Cc3ccccc3)ncc2Cl)cc1 ?
Response: inactive

----------
test: qHTS for antagonists of the Thyroid Stimulation Hormone Receptor: Hit Validation in HTRF Activity in a Luteinizing Hormone Receptor Cell Line; conditions: LHR-expressing cell line, cAMP HTRF, antagonist mode; series mostly up to 58 µM
Screen size: about 1,300 compounds; about 30 (2%) were called active. Another 10% or so got no clear call; they are omitted. The call rests on the fitted dose curve; in most records, active means well fitted inhibition curve with a large enough effect; inconclusive means small, poorly fitted or top-dose-only effect; inactive means flat fitted curve, though single readings scatter. The list comes from a sample in which actives are over-represented; it also holds close analogues and randomly drawn compounds.
Please answer using one outcome listed in true = active, false = inactive

Look over these answered cases.
{"COMPOUND": "CC(Sc1nnc(-c2cccs2)n1Cc1ccccc1)C(=O)NCc1ccc2c(c1)OCO2 (stereo not drawn)", "CATEGORY": "false"}
{"COMPOUND": "O=C(COC(=O)c1ccccc1NS(=O)(=O)c1cccs1)NCC12CC3CC(CC(C3)C1)C2", "CATEGORY": "false"}
{"COMPOUND": "O=C(Nc1cc(S(=O)(=O)N2CCCCC2)ccc1Cl)c1ccccc1NS(=O)(=O)c1ccc(F)cc1", "CATEGORY": "false"}
{"COMPOUND": "CCC(C)(C)C1CCC(NC(=O)N2CCN(c3ccccc3O)CC2)CC1 (stereo not drawn)", "CATEGORY": "false"}
{"COMPOUND": "Clc1ccccc1CN(Cc1ccccc1)c1ncnc2nc[nH]c12", "CATEGORY": "false"}

Prompt: What did this assay record as the result for COc1ccc(/C=N/n2c(SC)nnc(C(C)(C)C)c2=O)cc1 ?
Response: false

Prompt: What did this assay record as the result for CSc1nsc(NC(=O)OCc2ccc(Cl)cc2)n1 ?
Response: false

----------
test: qHTS for antagonists of the Thyroid Stimulation Hormone Receptor: Hit Validation in HTRF Activity in a Luteinizing Hormone Receptor Cell Line; conditions: LHR-expressing cell line, cAMP HTRF, antagonist mode; series mostly up to 58 µM
Hit rate of the full screen: of about 1,300 compounds, about 30 (2%) were called active. Another 10% or so got no clear call; they are omitted. Calls follow the shape of the dose curve; as a rule, active = well fitted inhibition curve with a large enough effect; inconclusive = small, poorly fitted or top-dose-only effect; inactive = flat fitted curve, though single readings scatter. The full list was thinned out, with actives kept by preference.
Please answer using one outcome listed in YES for active, NO for inactive

Look over these answered cases.
{"MOLECULE": "O=C(Nc1ncc(S(=O)(=O)c2ccc([N+](=O)[O-])cc2)s1)c1cccc2ccccc12", "CATEGORY": "NO"}
{"MOLECULE": "Cc1ccc(-c2nc3ccc(C(=O)O)cc3nc2-c2ccc(C)cc2)cc1", "CATEGORY": "NO"}
{"MOLECULE": "Cc1ccc(CS(=O)(=O)c2ncc(Cl)c(C(=O)Nc3nnc(C(C)C)s3)n2)cc1", "CATEGORY": "NO"}
{"MOLECULE": "COc1ccc(Nc2ccc([N+](=O)[O-])c3nonc23)c(OC)c1", "CATEGORY": "NO"}

Prompt: What did this assay record as the result for O=C(OCn1ncc(Cl)c(Cl)c1=O)c1ccccc1Cl ?
Response: NO

Prompt: What did this assay record as the result for CC1Cc2ccccc2N1C(=O)COC(=O)/C=C/c1ccc(F)cc1 (stereo unspecified) ?
Response: NO

Prompt: What did this assay record as the result for COc1ccc(-c2csc(NC(=O)c3ccccc3NS(=O)(=O)c3ccc(F)c(F)c3)n2)cc1 ?
Response: NO

Prompt: What did this assay record as the result for N#C/C(=N\Nc1ccc(Cl)c(Cl)c1)C(=O)C1CC1 ?
Response: NO

Prompt: What did this assay record as the result for COc1cc(/C=N/OCC(=O)NC23CC4CC(CC(C4)C2)C3)ccc1OCc1ccccc1 ?
Response: NO

----------
experiment: qHTS for antagonists of the Thyroid Stimulation Hormone Receptor: Hit Validation in HTRF Activity in a Luteinizing Hormone Receptor Cell Line; details: LHR-expressing cell line, cAMP HTRF, antagonist mode; series mostly up to 58 µM
Hit rate of the full screen: of about 1,300 compounds, about 30 (2%) were called active. Roughly 10% stayed inconclusive and do not appear here. Calls follow the shape of the dose curve; as a rule, active = well fitted inhibition curve with a large enough effect; inconclusive = small, poorly fitted or top-dose-only effect; inactive = flat fitted curve, though single readings scatter. Many of the other results were omitted from the sample, so actives are more common in it than they were.
Please answer using one outcome listed in active, inactive

Look over these answered cases.
{"COMPOUND": "CC(=O)c1ccc(N(C(=O)CNC(=O)c2ccco2)C(C(=O)NC2CCCC2)c2ccncc2)cc1 (configuration not stated)", "CATEGORY": "inactive"}
{"COMPOUND": "CCS(=O)(=O)c1ncc(Cl)c(C(=O)Nc2ccc(S(=O)(=O)N(C)c3ccccc3)cc2)n1", "CATEGORY": "active"}
{"COMPOUND": "CCCc1nnc(NC(=O)c2nc(S(=O)(=O)Cc3ccc(C)cc3)ncc2Cl)s1", "CATEGORY": "inactive"}

Prompt: What did this assay record as the result for CCOc1cc(C(=S)N2CCOCC2)ccc1OC(=O)c1ccccc1 ?
Response: inactive

Prompt: What did this assay record as the result for COc1ccccc1C1CCN(c2cc(O)ccc2[N+](=O)[O-])CC1 ?
Response: inactive

Prompt: What did this assay record as the result for Nc1nc(SCC(=O)C23CC4CC(CC(C4)C2)C3)n[nH]1 ?
Response: inactive

Prompt: What did this assay record as the result for CN(c1cccc(NC(=O)c2ccc(Cl)c(S(=O)(=O)Nc3ccccc3)c2)c1)S(C)(=O)=O ?
Response: inactive

Prompt: What did this assay record as the result for C=C(C)CNc1cc(S(=O)(=O)N2CCOCC2)ccc1Oc1ccccc1 ?
Response: inactive

----------
assay: qHTS for antagonists of the Thyroid Stimulation Hormone Receptor: Hit Validation in HTRF Activity in a Luteinizing Hormone Receptor Cell Line; settings: LHR-expressing cell line, cAMP HTRF, antagonist mode; series mostly up to 58 µM
Screen size: about 1,300 compounds; about 30 (2%) were called active. Another 10% or so got no clear call; they are omitted. The call rests on the fitted dose curve; in most records, active means well fitted inhibition curve with a large enough effect; inconclusive means small, poorly fitted or top-dose-only effect; inactive means flat fitted curve, though single readings scatter. The entries come from a sample that favours actives as a whole.
Please answer using one outcome listed in active, inactive

Look over these answered cases.
{"COMPOUND": "N#Cc1c(Cl)nsc1NC(=O)c1ccccc1", "CATEGORY": "inactive"}
{"COMPOUND": "COC(=O)c1ccc(NC(=O)c2nc(S(=O)(=O)Cc3cccc(C)c3)ncc2Cl)cc1", "CATEGORY": "inactive"}
{"COMPOUND": "O=C(NC1C2CC3CC(C2)CC1C3)c1ccc2c(c1)OCO2 (centres undefined)", "CATEGORY": "inactive"}

Then there is this compound:
Prompt: What did this assay record as the result for COC(=O)c1c(NC(NC(C)=O)C(Cl)(Cl)Cl)sc2c1CCCC2 (centres undefined) ?
Response: inactive

----------
experiment: qHTS for antagonists of the Thyroid Stimulation Hormone Receptor: Hit Validation in HTRF Activity in a Luteinizing Hormone Receptor Cell Line; details: LHR-expressing cell line, cAMP HTRF, antagonist mode; series mostly up to 58 µM; note: potency is the fitted concentration of half-maximal effect
About 30 (2%) of roughly 1,300 compounds were called active. Inconclusive results (about 10%) are left out. The entries come from a sample that favours actives as a whole.
QUANTITY NAME: Potency

# example entries with known answers
{"COMPOUND": "O=[N+]([O-])c1ccc(Sc2cccc[n+]2[O-])c2nonc12", "RESULT": "23.9 µM (active)"}
{"COMPOUND": "COc1ccc(Cc2nc(C(=O)Nc3ccc(Cl)cc3)cs2)cc1", "RESULT": "inactive"}
{"COMPOUND": "COc1ccc(S(=O)(=O)N2CCOC23CCN(C(=O)c2ccc(Cl)cc2Cl)CC3)cc1", "RESULT": "inactive"}
{"COMPOUND": "O=C(O)/C=C/c1ccc(S(=O)(=O)Nc2ccccc2C(=O)Nc2ccc(F)cc2)cc1", "RESULT": "inactive"}
{"COMPOUND": "Cc1c(N=Nc2c(-c3ccc([N+](=O)[O-])cc3)[nH]n(C(N)=S)c2=O)cccc1[N+](=O)[O-]", "RESULT": "inactive"}

Lab book: Potency of COc1ccc(OC)c(CCNC(=O)Cn2nc(C)c3c(C)n(-c4ccc(C)cc4)nc3c2=O)c1 noted as inactive

Lab book: Potency of Cc1ccccc1NC1c2ccccc2C(=O)N1Cc1ccco1 (stereo not given) noted as inactive

Lab book: Potency of O=C1NC(=S)S/C1=C\c1ccc2ccccc2c1 noted as inactive

Lab book: Potency of CCN(CC)S(=O)(=O)c1ccc(Oc2ccc(S(=O)(=O)N(CC)CC)cc2)cc1 noted as inactive

Lab book: Potency of Cc1cccc(N(C(=O)c2nsc(Cl)c2Cl)C(C(=O)NC2CCCC2)c2ccc(O)cc2)c1C (stereo not given) noted as 12 µM (active)
